// values below are reported logD7.4 (n ≥ 5), ^177Lu-labeled
- procedure details: n-Octanol-PBS distribution coefficient (logD7.4)
- Type: physicochemical
- study conditions: pH = 7.4, ^177Lu-labeled
Starred links: 1 amine or outer side, 2 acyl side, 3 side chain; linkers in the order of their positions; H or OH if unused. Non-standard residues stand in square brackets, D forms with d. Residues, ends and D or L forms follow the SMILES beside them. *: point of attachment. Benzoyl(4-SiFtBu2) = CC(C)(C)[Si](F)(c1ccc(C(=O)*)cc1)C(C)(C)C; DOTA = O=C(O)CN1CCN(CC(=O)O)CCN(CC(=O)*)CCN(CC(=O)O)CC1; PEG12 = NCCOCCOCCOCCOCCOCCOCCOCCOCCOCCOCCOCCOCCC(=O)O; d(γGlu) = O=C(O)[C@@H](CCC(=O)[*:2])N[*:1]; PEG8 = NCCOCCOCCOCCOCCOCCOCCOCCOCCC(=O)O; 1Nal = N[C@@H](Cc1cccc2ccccc12)C(=O)O; PEG5 = NCCOCCOCCOCCOCCOCCC(=O)O; NMeNle = CCCC[C@H](NC)C(=O)O; PEG4 = NCCOCCOCCOCCOCCC(=O)O; dDap = NC[C@@H](N)C(=O)O; AEEA = NCCOCCOCC(=O)O
Give your answer as a number; write no unit.

input: Fill blank: measured logD7.4 (n ≥ 5), ^177Lu-labeled of the compound CCCC[C@@H](C(=O)N[C@@H](CC(=O)O)C(=O)N[C@@H](Cc1cccc2ccccc12)C(N)=O)N(C)C(=O)[C@H](Cc1c[nH]c2ccccc12)NC(=O)CCOCCOCCOCCOCCOCCNC(=O)CC[C@@H](NC(=O)CN1CCN(CC(=O)O)CCN(CC(=O)O)CCN(CC(=O)O)CC1)C(=O)O [DOTA-CCK-78] ({DOTA-d(γGlu)-PEG5}-W[NMeNle]D[1Nal]-NH2) is ____.
output: −2.61

input: Fill blank: measured logD7.4 (n ≥ 5), ^177Lu-labeled of the compound CCCC[C@@H](C(=O)N[C@@H](CC(=O)O)C(=O)N[C@@H](Cc1cccc2ccccc12)C(N)=O)N(C)C(=O)[C@H](Cc1c[nH]c2ccccc12)NC(=O)CNC(=O)[C@H](Cc1ccc(O)cc1)NC(=O)CNC(=O)CNC(=O)CN1CCN(CC(=O)O)CCN(CC(=O)O)CCN(CC(=O)O)CC1 [DOTA-CCK-56] ({DOTA}-GGYGW[NMeNle]D[1Nal]-NH2) is ____.
output: −1.38

input: Fill blank: measured logD7.4 (n ≥ 5), ^177Lu-labeled of the compound CCCC[C@@H](C(=O)N[C@@H](CC(=O)O)C(=O)N[C@@H](Cc1cccc2ccccc12)C(N)=O)N(C)C(=O)[C@H](Cc1c[nH]c2ccccc12)NC(=O)CCOCCOCCOCCOCCNC(=O)CC[C@@H](NC(=O)CCOCCOCCOCCOCCOCCNC(=O)CC[C@@H](NC(=O)[C@@H](CNC(=O)C[N+](C)(C)Cc1ccc([Si](F)(C(C)(C)C)C(C)(C)C)cc1)NC(=O)CN1CCN(CC(=O)O)CCN(CC(=O)O)CCN(CC(=O)O)CC1)C(=O)O)C(=O)O is ____.
output: −1.66

input: Fill blank: measured logD7.4 (n ≥ 5), ^177Lu-labeled of the compound CCCC[C@@H](C(=O)N[C@@H](CC(=O)O)C(=O)N[C@@H](Cc1cccc2ccccc12)C(N)=O)N(C)C(=O)[C@H](Cc1c[nH]c2ccccc12)NC(=O)CCOCCOCCOCCOCCNC(=O)CC[C@@H](NC(=O)CCOCCOCCOCCOCCOCCOCCOCCOCCOCCOCCOCCOCCNC(=O)CC[C@@H](NC(=O)[C@@H](CNC(=O)c1ccc([Si](F)(C(C)(C)C)C(C)(C)C)cc1)NC(=O)CN1CCN(CC(=O)O)CCN(CC(=O)O)CCN(CC(=O)O)CC1)C(=O)O)C(=O)O is ____.
output: −1.82

input: Fill blank: measured logD7.4 (n ≥ 5), ^177Lu-labeled of the compound CCCC[C@@H](C(=O)N[C@@H](CC(=O)O)C(=O)N[C@@H](Cc1cccc2ccccc12)C(N)=O)N(C)C(=O)[C@H](Cc1c[nH]c2ccccc12)NC(=O)COCCOCCNC(=O)CC[C@@H](NC(=O)CN1CCN(CC(=O)O)CCN(CC(=O)O)CCN(CC(=O)O)CC1)C(=O)O [DOTA-CCK-77] ({DOTA-d(γGlu)-AEEA}-W[NMeNle]D[1Nal]-NH2) is ____.
output: −3.09

input: Fill blank: measured logD7.4 (n ≥ 5), ^177Lu-labeled of the compound CCCC[C@@H](C(=O)N[C@@H](CC(=O)O)C(=O)N[C@@H](Cc1cccc2ccccc12)C(N)=O)N(C)C(=O)[C@H](Cc1c[nH]c2ccccc12)NC(=O)CCOCCOCCOCCOCCOCCOCCOCCOCCNC(=O)CC[C@@H](NC(=O)CN1CCN(CC(=O)O)CCN(CC(=O)O)CCN(CC(=O)O)CC1)C(=O)O [DOTA-CCK-80] ({DOTA-d(γGlu)-PEG8}-W[NMeNle]D[1Nal]-NH2) is ____.
output: −2.51

input: Fill blank: measured logD7.4 (n ≥ 5), ^177Lu-labeled of the compound CCCC[C@@H](C(=O)N[C@@H](CC(=O)O)C(=O)N[C@@H](Cc1cccc2ccccc12)C(N)=O)N(C)C(=O)[C@H](Cc1c[nH]c2ccccc12)NC(=O)CCOCCOCCOCCOCCNC(=O)CC[C@@H](NC(=O)CCOCCOCCOCCOCCOCCOCCOCCOCCOCCOCCOCCOCCNC(=O)[C@@H](CNC(=O)c1ccc([Si](F)(C(C)(C)C)C(C)(C)C)cc1)NC(=O)CN1CCN(CC(=O)O)CCN(CC(=O)O)CCN(CC(=O)O)CC1)C(=O)O [DOTA-rhCCK-74] ({DOTA}-[dDap](Benzoyl(4-SiFtBu2))[PEG12][d(γGlu)][PEG4]W[NMeNle]D[1Nal]-NH2) is ____.
output: −1.19
